Origin of values: patent US20110223107A1

# Experimental Target: Fc-0447 1-60 (human) (UniProt Q9UBP8)
# Assay Procedure: ELISA
Property Name: OD450
Give only the figure.

Worked examples follow.
| Binder | OD450 |
| --- | --- |
| G12 (Fab, V domains shown) VH: EVQLQQSVAELVRPGASVTVSCKASGYIFTDYEIHWVKQTPAHGLEWIGVIDPETGNTAFNQKFKGKATLTADISSSTAYMELSSLTSEDSAVYYCMGYSDYWGQGTTLTVSS VL: DIVMTQSPKFMSTSVGDRVSITCKASQDVGTAVAWYQQKPGQSPELLIYWTSTRHTGVPDRFSGSGSGTDFTLTISSVQAEDLADYFCQQHYSIPLTFGAGTKLELR | 1.52 |
| Fab of well C2 (Omniclonal AL0003Z1 plate) (Fab, V domains shown) VH: DVQLQESGPDLVKPSQSLSLTCTVTGFSITSGYGWHWIRQFPGNKLEWMGYISFNGDSNYNPSLKSRISITRDTSKNQFFLQLNSVTSEDTATYYCASSYDGLFAYWGQGPLVTVSA VL: DIQMTQSPSSMYASLGERVTLTCKASQDIHNYLNWFQQKPGKSPKTLIHRANRLVAGVPSRFSGSGSGQDYSLTISSLEYEDLGIYYCLQYDAFPLTFGAGTKLELK | 0.48 |

// moving on: another record for OD450
Short answer for Fab of well D1 (Omniclonal AL0003Z1 plate) (Fab, V domains shown) VH: EVQLQESGPDLVKPSQSLSLTCTVTGFSITSGYGWHWIRQFPGDKLEWMGYISFNGDYNYNPSLKSRISITRDTSKNQFFLQLSSVTTEDTATYYCASSYDGLFAYWGQGTLVTVSA VL: DIKMTQSPSSMYASLGERVTITCKASQDIHTYLNWFQQKPGKSPETLIYRANRLVDGVPSRFSGSGSGQDYSLTISSLEYEDMGIYYCLQYDEFPLTFGAGTKLELK : OD450 was 0.27
